molecular target: Human GLP-1 receptor stably expressing cells (hGLP-1R/CHO-K1 cells) (Homo sapiens, UniProt P43220); experiment: Measurement of GLP-1 receptor agonist activity (cAMP assay); conditions: increase in cAMP concentration in hGLP-1R/CHO-K1 cells, 37° C. 1 hour
Sequence (P43220 24-463): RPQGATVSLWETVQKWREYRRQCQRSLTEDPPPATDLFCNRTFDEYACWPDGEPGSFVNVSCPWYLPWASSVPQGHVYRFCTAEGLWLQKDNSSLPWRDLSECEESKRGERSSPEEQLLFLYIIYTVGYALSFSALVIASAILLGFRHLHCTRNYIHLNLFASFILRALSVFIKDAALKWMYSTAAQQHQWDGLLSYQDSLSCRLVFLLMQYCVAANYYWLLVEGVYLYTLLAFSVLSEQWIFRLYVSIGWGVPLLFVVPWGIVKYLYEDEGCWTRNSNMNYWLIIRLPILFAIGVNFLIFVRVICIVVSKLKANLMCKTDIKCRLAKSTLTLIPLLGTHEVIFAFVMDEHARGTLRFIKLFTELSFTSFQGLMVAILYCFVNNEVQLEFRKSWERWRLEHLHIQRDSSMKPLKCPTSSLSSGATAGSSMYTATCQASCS
pEC50: −log10 of the molar value.
Hi, to clarify the labels: label 1 covers pEC50 from 9 upward, label 0 covers anything below 9.

compound=COc1cc(C(=O)O)cc2c1nc(CN1CCc3cc(C(F)F)c(OCc4c(F)cc(Cl)cc4F)nc3[C@@H]1C)n2C[C@@H]1CCO1 answer_label="label 1"
compound=C[C@H]1c2nc(OCc3ccc(Cl)cc3Cl)c(Cl)cc2CCN1Cc1nc2ccc(C(=O)O)nc2n1C[C@@H]1CCO1 answer_label="label 1"
compound="CC1c2nc(OCc3ccc(Cl)cc3F)ncc2CCN1Cc1nc2ccc(C(=O)O)cc2n1C[C@@H]1CCO1 (stereo partly drawn)" answer_label="label 0"
compound=C[C@H]1c2nc(OCc3ccc(Cl)cc3)c(C(F)F)cc2CCN1Cc1nc2c(F)cc(C(=O)O)cc2n1C[C@@H]1CCO1 answer_label="label 1"
